# folding stability dG values compiled below
B1: HEEH_KT_rd6_3546 (parent)
chain: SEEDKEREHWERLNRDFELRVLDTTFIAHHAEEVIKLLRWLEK

# Variants of: B1
# ASSAY NOTES: folding stability dG (cDNA display proteolysis); higher = more stable
# EXPERIMENTAL CONTEXT: PBS, room temperature
MEASURED QUANTITY: folding stability dG (kcal/mol)

1. SEESKEREHWERLNRDFELRVLDTTFIAHHAEEVIKLLRWLEK : 1.29
2. SEEDKEREHWEVLNRDFELRVLDTTFIAHHAEEVIKLLRWLEK : 1.37
3. SEEDKEREHWERLNRDFELRVLDTTFIAHHAEEVIKLLRWMEK : 1.22
4. SEEDKEREHWERLARDFELRVLDTTFIAHHAEEVIKLLRWLEK : 1.84
5. SEEDKEREHWERLIRDFELRVLDTTFIAHHAEEVIKLLRWLEK : 2.2
6. SEEDKMREHWERLNRDFELRVLDTTFIAHHAEEVIKLLRWLEK : 1.54
7. SEEDKEREHWERLNRDFELRVLDTTFIAHHAEEVIKLLRWIEK : 1.14
8. SEEDKEREHWERLNRDFELRVLDTTFIAHHAEEVAKLLRWLEK : 1.03
9. SEEDKEREHWERLNRDFELRVLDTTFIAHHAEEVIKLLRWGEK : 0.088
10. SEEDKEREMWERLNRDFELRVLDTTFIAHHAEEVIKLLRWLEK : 1.64
11. SEEDKEREHWERLNRDFELRVLDTVFIAHHAEEVIKLLRWLEK : 1.61
12. SEEDKEREHWERLNRDFELRVLDTTFIAHHYEEVIKLLRWLEK : 1.61
13. SEEDKEREHWERLNRDFELRVLDTTFIAHHPEEVIKLLRWLEK : 0.618
14. SEEDKEREHWERLNRDFELRVLDTTFIAHHAEEVIKLLRWLDK : 1.07
